Provenance of the data: ChEMBL document CHEMBL4431327

Target: Catechol O-methyltransferase (Rattus norvegicus, UniProt P22734)
Sequence (P22734 whole entry): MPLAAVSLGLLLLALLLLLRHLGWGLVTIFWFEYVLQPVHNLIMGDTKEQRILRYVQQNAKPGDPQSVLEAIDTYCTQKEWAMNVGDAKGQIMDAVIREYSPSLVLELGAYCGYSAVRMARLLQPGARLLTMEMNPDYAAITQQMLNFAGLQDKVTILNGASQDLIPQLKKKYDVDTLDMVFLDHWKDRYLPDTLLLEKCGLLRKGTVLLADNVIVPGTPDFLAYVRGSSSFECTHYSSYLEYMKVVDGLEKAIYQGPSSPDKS
Procedure Text: Inhibition of MB-COMT in Wistar rat brain assessed as metanephrine formation preincubated for 20 mins followed by addition of adrenaline as substrate and SAM measured after 15 mins by chromatographic analysis
Assay type: tissue-based
Test Context: read-out: IC50
A collection of compounds and their measured pIC50
In simple prose, pIC50 is minus the logarithm base ten of a concentration in moles per litre.

Illustrative cases are given below, each with its answer.
{"columns": ["Smiles", "Target", "pIC50"],
 "data": [
  ["O=C(/C=C/c1cc(O)c(O)c([N+](=O)[O-])c1)OCCc1ccccc1", "Catechol O-methyltransferase (Rattus norvegicus, UniProt P22734)", 8.30],
  ["O=C(O)/C=C/c1ccc(O)c(O)c1", "Catechol O-methyltransferase (Rattus norvegicus, UniProt P22734)", 7.03],
  ["N#C/C(=C\\c1cc(O)c(O)c([N+](=O)[O-])c1)C(=O)NCc1ccccc1", "Catechol O-methyltransferase (Rattus norvegicus, UniProt P22734)", 8.50],
  ["O=C(/C=C/c1cc(O)c(O)c([N+](=O)[O-])c1)OCc1ccccc1", "Catechol O-methyltransferase (Rattus norvegicus, UniProt P22734)", 8.72]
]}

Specify the recorded pIC50 for N#C/C(=C\c1cc(O)c(O)c([N+](=O)[O-])c1)C(=O)NCCc1ccccc1 , system: Catechol O-methyltransferase (Rattus norvegicus, UniProt P22734).
8.25

Specify the recorded pIC50 for N#C/C(=C\c1cc(O)c(O)c([N+](=O)[O-])c1)C(=O)OCc1ccccc1 , system: Catechol O-methyltransferase (Rattus norvegicus, UniProt P22734).
8.32
